The entries below are paired with their reported Activity.
Assay: Cell cycle arrest in human HL60 cells assessed as accumulation at S phase at 2.5 uM after 24 hrs by propidium iodide-staining based FACS analysis (reference value: 48.9 %)
Format: functional
Conditions: HL-60
Report as a plain number; the unit % is understood.

Q: Report Activity for C=C(CC)C(O)c1ccc(OCC(=O)NCCc2ccc(O)cc2)c(Cl)c1Cl (stereo unspecified) please.
Ans: 50.5

Q: Any idea what Activity was measured for `C=C(CC)C(=O)c1ccc(OCC(=O)N2CCN(c3ccc(OP4(=O)OCCCO4)cc3)CC2)c(Cl)c1Cl` ?
Ans: 47.1

Q: Find the recorded Activity belonging to `C=C(CC)C(=O)c1ccc(OCC(=O)NCCc2ccc(O)cc2)c(Cl)c1Cl` and report it.
Ans: 47.3

Further cases:
Q: Consider the molecule `C=C(CC)C(=O)c1ccc(OCC(=O)N2CCN(c3ccc(O)cc3)CC2)c(Cl)c1Cl` and give its measured Activity.
Ans: 49.3

Q: I have this molecule here, CCC(C)C(=O)c1ccc(OCC(=O)NCCc2ccc(O)cc2)c(Cl)c1Cl (stereo unspecified) , and I need its recorded Activity.
Ans: 46.7

Q: State the recorded Activity for this entry: C=C(CC)C(=O)c1ccc(OCC(=O)O)c(Cl)c1Cl [ETHACRYNIC ACID]
Ans: 43.6

* * *

Test system: KB
Assay: Induction of necrosis in human KB cells assessed as increase in LDH release at 7 uM after 24 to 48 hrs by fluorescence assay
Assay type: functional, cell-based
Activity calls are given as the source filed them. No cut-off for these calls is given here.
quantity-measured: Activity

Take a look at these entries with their results.
Q: Param item = `C=C(CC)C(=O)c1ccc(OCC(=O)NCCc2ccc(O)cc2)c(Cl)c1Cl` ; retrieve measured Activity.
Ans: Active

Q: Recorded Activity of `C=C(CC)C(=O)c1ccc(OCC(=O)NCCc2ccccc2)c(Cl)c1Cl` , please.
Ans: Active

Q: What does the record list as Activity for `C=C(CC)C(=O)c1ccc(OCC(=O)N(C)CCc2ccc(OC)cc2)c(Cl)c1Cl` ?
Ans: Active

Q: Query: Activity; subject: `C=C(CC)C(=O)c1ccc(OCC(=O)OCCc2ccc(O)cc2)c(Cl)c1Cl`
Ans: Active

Q: Returns the measured Activity for the input compound. Input: `C=C(CC)C(=O)c1ccc(OCC(=O)NCCc2ccc(OC)cc2)c(Cl)c1Cl`
Ans: Active

Q: State the recorded Activity for this entry: `C=C(CC)C(=O)c1ccc(OCC(=O)NCCc2ccc(O)c(OC)c2)c(Cl)c1Cl`
Ans: Active

Others:
Q: Would you kindly share the measured Activity for `C=C(CC)C(=O)c1ccc(OCC(=O)NCCc2ccc(OC)c(OC)c2)c(Cl)c1Cl` ?
Ans: Active

* * *

Experiment: Cell cycle arrest in human HL60 cells assessed as accumulation at sub G1 phase at 2.5 uM after 24 hrs by propidium iodide-staining based FACS analysis (reference value: 2.6 %)
Assay type: functional
Details: HL-60
Activity of 3% or higher: condition met. Under 3%: condition not met.

Previously resolved entries follow.
Q: Hello, I need to know if `C=C(CC)C(=O)c1ccc(OCC(=O)O)c(Cl)c1Cl` has measured Activity not below 3%. Thanks!
Ans: condition not met

Q: Record `C=C(CC)C(=O)c1ccc(OCC(=O)N2CCN(c3ccc(O)cc3)CC2)c(Cl)c1Cl` ; criterion: Activity no lower than 3%. Met?
Ans: condition not met

Q: Is the recorded value of Activity equal to or greater than 3% for this molecule? CCC(C)C(=O)c1ccc(OCC(=O)NCCc2ccc(O)cc2)c(Cl)c1Cl (stereo unspecified)
Ans: condition met

Q: API: above_or_equal(metric=Activity, cutoff=3%) for item `C=C(CC)C(=O)c1ccc(OCC(=O)N2CCN(c3ccc(OP4(=O)OCCCO4)cc3)CC2)c(Cl)c1Cl`
Ans: condition not met

Q: Decide: Activity of `C=C(CC)C(=O)c1ccc(OCC(=O)NCCc2ccc(O)cc2)c(Cl)c1Cl` >= 3%?
Ans: condition met

Okay, now this molecule:
Q: Hi, just wondering whether C=C(CC)C(O)c1ccc(OCC(=O)NCCc2ccc(O)cc2)c(Cl)c1Cl (stereo unspecified) shows Activity of 3% or higher.
Ans: condition not met

* * *

Assay: Antiproliferative activity against human MCF7 cells after 24 to 72 hrs by MTS assay
Type: functional, cell-based
Note to self: IC50 under 900 nM means 1.0, ties and anything higher get 0.0.

Here are 3 compounds together with their reported answers.
Q: Determine whether this compound shows IC50 lower than 900 nM (ties excluded): `C=C(CC)C(=O)c1ccc(OCC(=O)N2CCN(c3ccc(O)cc3)CC2)c(Cl)c1Cl`
Ans: 1.0

Q: Does this compound meet the criterion IC50 < 900 nM? `C=C(CC)C(=O)c1ccc(OCC(=O)NCCc2ccc(O)cc2)c(Cl)c1Cl`
Ans: 0.0

Q: is_below(IC50, 900 nM) for C=C(CC)C(=O)c1ccc(OCC(=O)O)c(Cl)c1Cl [ETHACRYNIC ACID] ?
Ans: 0.0

Okay, next one:
Q: # strict comparison: is reported IC50 < 900 nM? input = `C=C(CC)C(=O)c1ccc(OCC(=O)N2CCN(c3ccc(OP(=O)(OC)OC)cc3)CC2)c(Cl)c1Cl`
Ans: 1.0

* * *

Test: Cell cycle arrest in human HL60 cells assessed as accumulation at sub G1 phase at 2.5 uM after 48 hrs by propidium iodide-staining based FACS analysis (reference value: 1.4 %)
Format: functional
Details: HL-60
Where Activity equals or exceeds 10%, the correct label is label 1; where it does not, the label is label 0.

Q: Determine whether measured Activity meets or exceeds 10% for `C=C(CC)C(=O)c1ccc(OCC(=O)N2CCN(c3ccc(OP4(=O)OCCCO4)cc3)CC2)c(Cl)c1Cl`
Ans: label 1

Next:
Q: Is the recorded value of Activity equal to or greater than 10% for this compound? `C=C(CC)C(=O)c1ccc(OCC(=O)N2CCN(c3ccc(O)cc3)CC2)c(Cl)c1Cl`
Ans: label 1

Q: Decide: is the reported value of Activity for C=C(CC)C(=O)c1ccc(OCC(=O)O)c(Cl)c1Cl [ETHACRYNIC ACID] equal to or greater than 10%?
Ans: label 0

Q: hey, is Activity for this one >= 10%? C=C(CC)C(O)c1ccc(OCC(=O)NCCc2ccc(O)cc2)c(Cl)c1Cl (stereo unspecified)
Ans: label 0

Q: Form field: Activity at least 10%? Entry: CCC(C)C(=O)c1ccc(OCC(=O)NCCc2ccc(O)cc2)c(Cl)c1Cl (stereo unspecified)
Ans: label 0

// data source = ChEMBL document CHEMBL3865827
